- Test system: large crabgrass
- test_method_notes: Test G preemergence/postemergence greenhouse plant response rating 0 to 100
- Format: in vivo, Digitaria sanguinalis
- test_context: PREEMERGENCE, Rate 125 g/ha, 0 to 100 scale
measurement_label: Plant response rating, Large Crabgrass
Write no unit; give the number alone.

Example results:
CCCOc1cc(-c2nn3c(c2Cl)CCCC3)c(F)cc1Cl = 0
CCS(=O)(=O)Oc1cc(-c2nn3c(c2Cl)CCCC3)c(F)cc1Cl = 0
CCCN1C(=O)COc2cc(F)c(-c3nn4c(c3Cl)CCCC4)cc21 = 0

Let us examine a further case.
For the record "Fc1cc(Cl)c(OC2CCCC2)cc1-c1nn2c(c1Cl)CCCC2" , what value of Plant response rating, Large Crabgrass is listed for large crabgrass? 80

###

- Test system: chickweed
- test_method_notes: Test C preemergence/postemergence greenhouse plant response rating 0 to 100
- Format: in vivo, Stellaria media
- test_context: POSTEMERGENCE; Rate 4 g/ha
Listed next: entries and their corresponding Plant response rating (0 to 100), Chickweed.

C#CC(C)Oc1cc(-c2nn3c(c2Br)CCCC3)c(F)cc1Cl (stereo not shown) = 30

Item under review: "C#CCN1C(=O)COc2cc(F)c(-c3nn4c(c3Br)CCCC4)cc21" . Reported Plant response rating (0 to 100), Chickweed? 80

For C#CC(C)N1C(=O)COc2cc(F)c(-c3nn4c(c3Cl)CCCC4)cc21 (stereo not shown) then? 30

For "CCN1C(=O)COc2cc(F)c(-c3nn4c(c3Cl)CCCC4)cc21" then? 75

###

- System: umbrella sedge
- test_method_notes: Test C flood test plant response rating 0 to 100
- Format: in vivo, Cyperus difformis
- test_context: POSTEMERGENCE section, flood test; Rate 4 g/ha
Listed next: entries and their corresponding Plant response rating (0 to 100), Umbrella sedge.
Write no unit; give the number alone.

Example results:
CCN1C(=O)COc2cc(F)c(-c3nn4c(c3Cl)CCCC4)cc21 = 0
CC(C)Oc1cc(-c2nn3c(c2Br)CCCC3)c(F)cc1Cl = 0
COC(=O)c1cc(-c2nn3c(c2Cl)CCCC3)c(F)cc1Cl = 0
CC(C)N1C(=O)COc2cc(F)c(-c3nn4c(c3Cl)CCCC4)cc21 = 0

Item under review: "C=CCN1C(=O)COc2cc(F)c(-c3nn4c(c3Cl)CCCC4)cc21" . Reported Plant response rating (0 to 100), Umbrella sedge? 20

###

- Tested on: wild oat
- test_method_notes: Test C preemergence/postemergence greenhouse plant response rating 0 to 100
- Type: in vivo, Avena fatua
- test_context: POSTEMERGENCE; Rate 4 g/ha
Listed next: entries and their corresponding Plant response rating (0 to 100), Wild oat.

Example results:
C#CC(C)N1C(=O)COc2cc(F)c(-c3nn4c(c3Cl)CCCC4)cc21 (centres unmarked) = 20
C#CCOc1cc(-c2nn3c(c2Br)CCCC3)c(F)cc1Cl = 20
CC(C)COc1cc(-c2nn3c(c2Cl)CCCC3)c(F)cc1Cl = 20
COc1cc(-c2nn3c(c2Cl)CCCC3)c(F)cc1Cl = 20

Let us examine a further case.
Item under review: "C#CCN1C(=O)COc2cc(F)c(-c3nn4c(c3Br)CCCC4)cc21" . Reported Plant response rating (0 to 100), Wild oat? 40

###

Listed next: entries and their corresponding Plant response rating, Corn.
- Test system: corn
- test_method_notes: Test B preemergence/postemergence greenhouse plant response rating 0 to 10
- Format: in vivo, Zea mays
- test_context: POSTEMERGENCE, Rate 200 g/ha; 0 to 10 scale
Write no unit; give the number alone.

Item under review: "O=C1COc2cc(F)c(-c3nn4c(c3Cl)CCCC4)cc2N1" . Reported Plant response rating, Corn? 6

For "Fc1cc(Cl)ccc1-c1nn2c(c1Br)CCCC2" then? 8

For "C#CCOc1cc(-c2nn3c(c2Br)CCCC3)c(F)cc1Cl" then? 5

For C#CC(C)Oc1cc(-c2nn3c(c2Cl)CCCC3)c(F)cc1Cl (centres unmarked) then? 6

For "CCS(=O)(=O)Oc1cc(-c2nn3c(c2Cl)CCCC3)c(F)cc1Cl" then? 6

###

- Tested on: guineagrass
- test_method_notes: Test G preemergence/postemergence greenhouse plant response rating 0 to 100
- Format: in vivo, Panicum maximum
- test_context: PREEMERGENCE, Rate 250 g/ha, 0 to 100 scale
measurement_label: Plant response rating, Guineagrass
Write no unit; give the number alone.

Example results:
COc1cc(-c2nn3c(c2Cl)CCCC3)c(F)cc1Cl [Compound 29] = 100
COC(=O)C(C)Oc1cc(-c2nn3c(c2Cl)CCCC3)c(F)cc1Cl (centres unmarked) [Compound 28] = 0
CCCN1C(=O)COc2cc(F)c(-c3nn4c(c3Cl)CCCC4)cc21 [Compound 32] = 0
CC(C)COc1cc(-c2nn3c(c2Cl)CCCC3)c(F)cc1Cl [Compound 30] = 0

Item under review: C=CCN1C(=O)COc2cc(F)c(-c3nn4c(c3Cl)CCCC4)cc21 [Compound 33] . Reported Plant response rating, Guineagrass? 0

###

- System: sorghum
- test_method_notes: Test B preemergence/postemergence greenhouse plant response rating 0 to 10
- Type: in vivo, Sorghum bicolor
- test_context: Rate 200 g/ha, PREEMERGENCE; 0 to 10 scale
Listed next: entries and their corresponding Plant response rating, Sorghum.
Write no unit; give the number alone.

Example results:
CCCOc1cc(-c2nn3c(c2Cl)CCCC3)c(F)cc1Cl = 2
CC(C)OC(=O)COc1cc(-c2nn3c(c2Cl)CCCC3)c(F)cc1Cl = 0

Let us examine a further case.
For the record "O=C1COc2cc(F)c(-c3nn4c(c3Cl)CCCC4)cc2N1" , what value of Plant response rating, Sorghum is listed for sorghum? 0

###

Listed next: entries and their corresponding Plant response rating, Rice.
- Tested on: rice
- test_method_notes: Test B preemergence/postemergence greenhouse plant response rating 0 to 10
- Format: in vivo, Oryza sativa
- test_context: PREEMERGENCE, Rate 50 g/ha; 0 to 10 scale

C=CCOc1cc(-c2nn3c(c2Br)CCCC3)c(F)cc1Cl = 0

Item under review: "CC(C)Oc1cc(-c2nn3c(c2Cl)CCCC3)c(F)cc1Cl" . Reported Plant response rating, Rice? 0

For "O=C1COc2cc(F)c(-c3nn4c(c3Br)CCCC4)cc2N1" then? 2

###

- Tested on: wild oat
- test_method_notes: Test C preemergence/postemergence greenhouse plant response rating 0 to 100
- Type: in vivo, Avena fatua
- test_context: POSTEMERGENCE, 125 g/ha, 0 to 100 scale
- Description: The compounds evaluated in this test were formulated in a non-phytoxic solvent and applied to the soil surface before plant seedlings emerged (preemergence application), to water that covered the soil surface (flood application), and to plants that were in the one-to-four leaf stage (postemergence application). A sandy loam soil was used for the preemergence and postemergence tests, while a silt loam soil was used in the flood test. […]
Listed next: entries and their corresponding Plant response rating, Wild oat.
Write no unit; give the number alone.

CCOC(=O)COc1cc(-c2nn3c(c2Cl)CCCC3)c(F)cc1Cl = 30
C=CCN1C(=O)COc2cc(F)c(-c3nn4c(c3Br)CCCC4)cc21 = 50
CC(C)OC(=O)COc1cc(-c2nn3c(c2Cl)CCCC3)c(F)cc1Cl = 30

Let us examine a further case.
Item under review: "CCOCOc1cc(-c2nn3c(c2Cl)CCCC3)c(F)cc1Cl" . Reported Plant response rating, Wild oat? 60

###

Listed next: entries and their corresponding Plant response rating, Blackgrass.
- Test system: blackgrass
- test_method_notes: Test B preemergence/postemergence greenhouse plant response rating 0 to 10
- Type: in vivo, Alopecurus myosuroides
- test_context: Rate 200 g/ha, PREEMERGENCE; 0 to 10 scale

Item under review: "Fc1cc(Cl)c(OCc2ccccc2)cc1-c1nn2c(c1Cl)CCCC2" . Reported Plant response rating, Blackgrass? 5

For "Fc1cc(Cl)c(OC2CCCC2)cc1-c1nn2c(c1Cl)CCCC2" then? 8

For "C=CCOc1cc(-c2nn3c(c2Br)CCCC3)c(F)cc1Cl" then? 6

For "CC(C)COc1cc(-c2nn3c(c2Cl)CCCC3)c(F)cc1Cl" then? 0

For "Fc1cc(Cl)c(-c2ccccc2)cc1-c1nn2c(c1Cl)CCCC2" then? 0

###

Listed next: entries and their corresponding Plant response rating, Cheatgrass.
- System: cheatgrass
- test_method_notes: Test B preemergence/postemergence greenhouse plant response rating 0 to 10
- Format: in vivo, Bromus secalinus
- test_context: Rate 200 g/ha, PREEMERGENCE; 0 to 10 scale

For the record "C=CCOc1cc(-c2nn3c(c2Br)CCCC3)c(F)cc1Cl" , what value of Plant response rating, Cheatgrass is listed for cheatgrass? 6

For "CCCOc1cc(-c2nn3c(c2Cl)CCCC3)c(F)cc1Cl" then? 6

For "Clc1ccc(-c2nc3n(c2Cl)CCC=C3)c(Cl)c1" then? 0

For "CC(C)OC(=O)c1cc(-c2nn3c(c2Cl)CCCC3)c(F)cc1Cl" then? 6

For "C=C(Cl)COc1cc(-c2nn3c(c2Cl)CCCC3)c(F)cc1Cl" then? 4

For "Fc1cc(Cl)c(OCCCl)cc1-c1nn2c(c1Cl)CCCC2" then? 2

For "CC(C)Oc1cc(-c2nn3c(c2Cl)CCCC3)c(F)cc1Cl" then? 6

For "C=CCN1C(=O)COc2cc(F)c(-c3nn4c(c3Br)CCCC4)cc21" then? 5

For "Fc1cc(Cl)c(OC2CCCC2)cc1-c1nn2c(c1Cl)CCCC2" then? 4
